Origin of measurements: ChEMBL document CHEMBL3885861

species: Rattus norvegicus; assay: Open TG-GATES - Regimen: Daily Repeat; format: toxicity, organism-based, Sprague-Dawley; parameters: regimen Daily Repeat, gender Male, age 6 weeks; details: in vivo, po, 10 mg/kg, […], tissue Blood, route gavage, dose level Low, time 14 day
Form field: MCHC (one value per entry).
EXPERIMENTAL_ENDPOINT: MCHC

                                   molecule  experimental_endpoint  readout_value
0                CN(C)CCN(Cc1cccs1)c1ccccn1                   MCHC            34%
1             CN(C)CCCN1c2ccccc2CCc2ccccc21                   MCHC          33.8%
2  CC(C)OC(=O)C(C)(C)Oc1ccc(C(=O)c2ccc(Cl)cc2)cc1 [FENOFIBRATE]                   MCHC          33.5%
3  CC1=C(/C=C/C(C)=C/C=C/C(C)=C/CO)C(C)(C)CCC1                   MCHC          35.4%

----------
species: Rattus norvegicus; assay: Open TG-GATES - Regimen: Daily Repeat; type: toxicity, organism-based, Sprague-Dawley; design: regimen Daily Repeat, gender Male, age 6 weeks; settings: in vivo, po, 0 mg/kg, 72 h, tissue Blood, route gavage, dose level Control, time 3 day
EXPERIMENTAL_ENDPOINT: MCHC (%)

MOLECULE	EXPERIMENTAL_ENDPOINT	READOUT_VALUE
O=C(CCCN1CCC(O)(c2ccc(Cl)cc2)CC1)c1ccc(F)cc1 [HALOPERIDOL]	MCHC	33.6
CCOc1ccc(NC(=O)CC(C)O)cc1 (stereo not drawn) [BUCETIN]	MCHC	33.3
CCOC(=O)CCC(=O)O[C@H]1[C@H](O[C@@H]2[C@@H](C)[C@H](O[C@H]3C[C@@](C)(OC)[C@@H](O)[C@H](C)O3)[C@@H](C)C(=O)O[C@H](CC)[C@@](C)(O)[C@H](O)[C@@H](C)C(=O)[C@H](C)C[C@@]2(C)O)O[C@H](C)C[C@@H]1N(C)C [ERYTHROMYCIN ETHYLSUCCINATE]	MCHC	33.7

----------
Form field: Ca (one value per entry).
species: Rattus norvegicus; assay: Open TG-GATES - Regimen: Single; type: toxicity, organism-based, Sprague-Dawley; parameters: regimen Single, gender Male, age 6 weeks; settings: in vivo, po, 100 mg/kg, 3 h, tissue Plasma, route gavage, dose level Low
EXPERIMENTAL_ENDPOINT: Ca

COMPOUND	READOUT_VALUE
COc1ccc2[nH]c([S+]([O-])Cc3ncc(C)c(OC)c3C)nc2c1 (centres undefined)	10.6 mg/dL
COC1=CC(=O)C[C@@H](C)[C@]12Oc1c(Cl)c(OC)cc(OC)c1C2=O	10.9 mg/dL
NC(N)=Nc1nc(CSCCC(N)=NS(N)(=O)=O)cs1	10.5 mg/dL
CCOC(=O)CCC(=O)O[C@H]1[C@H](O[C@@H]2[C@@H](C)[C@H](O[C@H]3C[C@@](C)(OC)[C@@H](O)[C@H](C)O3)[C@@H](C)C(=O)O[C@H](CC)[C@@](C)(O)[C@H](O)[C@@H](C)C(=O)[C@H](C)C[C@@]2(C)O)O[C@H](C)C[C@@H]1N(C)C [ERYTHROMYCIN ETHYLSUCCINATE]	10.5 mg/dL
